Target: rat EP3 receptor (Rattus norvegicus)
Construct: expressed in transfected cells
Sequence (P34980 1-365): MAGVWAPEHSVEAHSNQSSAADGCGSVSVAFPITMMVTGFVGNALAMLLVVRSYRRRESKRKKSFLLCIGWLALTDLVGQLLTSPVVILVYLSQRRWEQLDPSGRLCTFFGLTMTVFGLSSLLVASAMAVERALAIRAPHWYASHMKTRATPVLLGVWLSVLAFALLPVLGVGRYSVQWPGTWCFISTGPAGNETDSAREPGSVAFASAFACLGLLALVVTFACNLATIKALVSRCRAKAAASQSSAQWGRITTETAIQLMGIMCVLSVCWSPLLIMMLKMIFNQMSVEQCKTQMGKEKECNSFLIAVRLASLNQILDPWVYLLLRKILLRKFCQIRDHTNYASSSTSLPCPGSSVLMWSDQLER
Experiment: Selectivity test: antagonistic action on rat EP3 receptor (intracellular Ca2+, HEK-293 cells)
Assay type: cell-based
Settings: PGE2 100 nmol/L, HEK-293 cells stably expressing rat EP3; read-out: Concentration up to which no inhibitory action of 50% or more on the increase in intracellular Ca2+ concentration due to PGE2 through the rat EP3 receptor
Description: Test Example 9: Evaluation Test of Receptor Antagonistic Action on Rat EP1/EP2/EP3 Receptor (Selectivity Test) The antagonistic action of Compound A on other subtypes ([…], EP2, and EP3) of the rat-derived PGE2 receptor was evaluated. […] The intracellular Ca^2+ concentration was measured using FLIPR tetra (Molecular Devices, LLC.) with the fluorescence intensity of the Dye as an indicator. […]
pIC50: −log10 of the molar value.
experimentalEndpoint: pIC50

{"columns": ["smilesRepr", "recordedMeasurement"],
 "data": [
  ["Cc1nn(Cc2cc3ccccc3cn2)c(C(=O)N[C@@H](C)c2ccc(C(=O)O)cc2)c1Br", "< 5.00"]
]}

###

Molecular target: human EP4 receptor (Homo sapiens, UniProt P35408)
Sequence (P35408 whole entry): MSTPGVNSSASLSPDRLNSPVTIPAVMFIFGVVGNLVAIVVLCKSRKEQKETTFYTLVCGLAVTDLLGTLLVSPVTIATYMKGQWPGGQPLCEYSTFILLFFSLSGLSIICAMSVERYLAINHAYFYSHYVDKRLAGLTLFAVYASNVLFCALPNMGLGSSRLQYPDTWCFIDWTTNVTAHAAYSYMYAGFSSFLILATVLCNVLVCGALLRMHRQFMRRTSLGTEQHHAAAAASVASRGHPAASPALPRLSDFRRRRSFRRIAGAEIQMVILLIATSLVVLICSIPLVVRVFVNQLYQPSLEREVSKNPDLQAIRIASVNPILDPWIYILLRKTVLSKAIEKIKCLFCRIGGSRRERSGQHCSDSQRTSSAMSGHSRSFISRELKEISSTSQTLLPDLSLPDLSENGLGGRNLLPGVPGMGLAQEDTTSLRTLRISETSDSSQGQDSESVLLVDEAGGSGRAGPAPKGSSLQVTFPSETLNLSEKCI
Test: Human EP4 receptor antagonistic action by measurement of cAMP amount in human Jurkat cells
Settings: PGE2 100 nmol/L, average of three experiments, read-out: IC50 value with respect to the cAMP production action by PGE2 in human Jurkat cells
Description: Test Example 3: Evaluation Test of Human EP4 Receptor Antagonistic Action by Measurement of cAMP Amount in Human Jurkat Cells […] A cAMP HiRange kit (Cisbio international) was used for cAMP measurement. […] After incubation, the fluorescence intensity of the cryptate at 620 nm and the fluorescence intensity of the d2 at 665 nm were measured using ARVO1420 (PerkinElmer). […] An average value was calculated from three experiment results.
pIC50: −log10 of the molar value.

{"columns": ["smilesRepr", "pIC50"],
 "data": [
  ["Cc1nn(Cc2cc3ccccc3cn2)c(C(=O)N[C@@H](C)c2ccc(C(=O)O)cc2)c1Br", 9.80]
]}

###

Biological target: rat EP4 receptor (Rattus norvegicus, UniProt P43114)
Sequence (P43114 whole entry): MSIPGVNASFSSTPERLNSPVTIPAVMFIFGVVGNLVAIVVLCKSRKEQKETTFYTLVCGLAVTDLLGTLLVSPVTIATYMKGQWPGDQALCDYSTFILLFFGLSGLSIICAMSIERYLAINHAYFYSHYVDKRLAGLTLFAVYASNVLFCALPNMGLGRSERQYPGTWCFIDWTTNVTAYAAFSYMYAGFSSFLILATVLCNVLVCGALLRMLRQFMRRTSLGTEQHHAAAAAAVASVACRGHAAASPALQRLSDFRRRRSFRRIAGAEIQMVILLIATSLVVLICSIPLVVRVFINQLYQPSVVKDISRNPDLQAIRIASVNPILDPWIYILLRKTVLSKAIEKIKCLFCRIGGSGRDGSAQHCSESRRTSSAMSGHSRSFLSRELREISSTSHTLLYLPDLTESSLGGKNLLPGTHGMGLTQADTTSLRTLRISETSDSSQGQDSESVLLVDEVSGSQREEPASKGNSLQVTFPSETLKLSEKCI

{"columns": ["compound", "Ki [nM]"],
 "data": [
  ["Cc1cc(C(=O)N[C@@H](C)c2ccc(C(=O)O)cc2)n(Cc2ccc(Cl)cc2)n1 [Example 205 in Patent Document 1, reference compound]", 140]
]}

###

Molecular target: rat EP2 receptor (Rattus norvegicus, UniProt Q62928)
Sequence (Q62928 whole entry): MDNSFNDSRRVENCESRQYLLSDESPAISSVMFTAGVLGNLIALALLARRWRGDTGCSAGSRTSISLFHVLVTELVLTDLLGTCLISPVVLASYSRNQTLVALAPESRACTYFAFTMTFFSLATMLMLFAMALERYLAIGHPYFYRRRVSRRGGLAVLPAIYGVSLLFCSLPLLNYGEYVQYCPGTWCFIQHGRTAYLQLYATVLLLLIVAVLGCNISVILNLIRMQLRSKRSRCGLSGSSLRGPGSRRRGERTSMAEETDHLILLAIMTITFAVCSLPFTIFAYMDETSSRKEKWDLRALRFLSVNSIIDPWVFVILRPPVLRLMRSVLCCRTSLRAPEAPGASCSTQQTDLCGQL
Test: Selectivity test: antagonistic action on rat EP2 receptor (cAMP amount, CHO-K1 cells)
Conditions: PGE2 100 nmol/L, CHO-K1 cells stably expressing rat EP2; read-out: Concentration up to which no inhibitory action of 50% or more on the increase in intracellular cAMP amount due to PGE2 through the rat EP2 receptor

{"columns": ["smilesRepr", "IC50"],
 "data": [
  ["Cc1nn(Cc2cc3ccccc3cn2)c(C(=O)N[C@@H](C)c2ccc(C(=O)O)cc2)c1Br", "> 10 µM"]
]}
